Data credit: the supplement of paper PMC10307832

# Test system: SW 1573
# experiment notes: relative viability (nuclei count vs DMSO), 5 days (fraction); higher = more cells survive
# details: first compound 0.01 µM
Output MET for records whose relative viability is lower than 0.5, NOT MET for records at or above 0.5.

Would you please look over these solved cases?
Dear reviewer, please state whether NC(=O)Nc1cc(-c2cccc(F)c2)sc1C(=O)N[C@H]1CCCNC1 [AZD7762] + O=C(c1cc(Cc2n[nH]c(=O)c3ccccc23)ccc1F)N1CCN(C(=O)C2CC2)CC1 [Olaparib] (partner 8 µM) has relative viability strictly beneath 0.5.
MET

Dear reviewer, please state whether NC(=O)Nc1cc(-c2cccc(F)c2)sc1C(=O)N[C@H]1CCCNC1 [AZD7762] + Nc1nc2[nH]cc(CCc3ccc(C(=O)N[C@@H](CCC(=O)O)C(=O)O)cc3)c2c(=O)[nH]1 [Pemetrexed] (partner 0.2 µM) has relative viability strictly beneath 0.5.
NOT MET

Dear reviewer, please state whether NC(=O)Nc1cc(-c2cccc(F)c2)sc1C(=O)N[C@H]1CCCNC1 [AZD7762] + COc1cc2c(Oc3ccc(NC(=O)C4(C(=O)Nc5ccc(F)cc5)CC4)cc3F)ccnc2cc1OCCCN1CCOCC1 [Foretinib] (partner 0.25 µM) has relative viability strictly beneath 0.5.
NOT MET

Dear reviewer, please state whether NC(=O)Nc1cc(-c2cccc(F)c2)sc1C(=O)N[C@H]1CCCNC1 [AZD7762] + CCNC(=O)c1noc(-c2cc(C(C)C)c(O)cc2O)c1-c1ccc(CN2CCOCC2)cc1 [Luminespib] (partner 0.01 µM) has relative viability strictly beneath 0.5.
NOT MET

Dear reviewer, please state whether NC(=O)Nc1cc(-c2cccc(F)c2)sc1C(=O)N[C@H]1CCCNC1 [AZD7762] + N=C(N)NC(=N)NCCc1ccccc1 [Phenformin] (partner 250 µM) has relative viability strictly beneath 0.5.
MET

Others:
Dear reviewer, please state whether NC(=O)Nc1cc(-c2cccc(F)c2)sc1C(=O)N[C@H]1CCCNC1 [AZD7762] + CS(=O)(=O)CCNCc1ccc(-c2ccc3ncnc(Nc4ccc(OCc5cccc(F)c5)c(Cl)c4)c3c2)o1 [Lapatinib] (partner 2 µM) has relative viability strictly beneath 0.5.
NOT MET

====

Exercise: for every item that follows, state its recorded relative viability.
# Test system: NCI-H596
# experiment notes: relative viability (nuclei count vs DMSO), 5 days (fraction); higher = more cells survive
# details: first compound 0.08 µM
Numbers only.

Before answering, review these 3 worked examples.
Field request: relative viability | item: Oc1nc(-c2ccc(C(F)(F)F)cc2)nc2c1CSCC2 [XAV939] + COc1cccc2cc(-c3nc([C@H]4CC[C@H](C(=O)O)CC4)n4ncnc(N)c34)[nH]c12 [OSI-027] (partner 0.5 µM)
0.803

Field request: relative viability | item: Oc1nc(-c2ccc(C(F)(F)F)cc2)nc2c1CSCC2 [XAV939] + CC(C)C[C@H](NC(=O)[C@H](Cc1ccccc1)NC(=O)c1cnccn1)B(O)O [Bortezomib] (partner 0.002 µM)
1.11

Field request: relative viability | item: Oc1nc(-c2ccc(C(F)(F)F)cc2)nc2c1CSCC2 [XAV939] + Cc1nc(Nc2ncc(C(=O)Nc3c(C)cccc3Cl)s2)cc(N2CCN(CCO)CC2)n1 [Dasatinib] (partner 0.075 µM)
0.584

Please state relative viability for every molecule in the list that follows.
1. Oc1nc(-c2ccc(C(F)(F)F)cc2)nc2c1CSCC2 [XAV939] + CC1(C)CCC(c2ccc(Cl)cc2)=C(CN2CCN(c3ccc(C(=O)NS(=O)(=O)c4ccc(N[C@H](CCN5CCOCC5)CSc5ccccc5)c(S(=O)(=O)C(F)(F)F)c4)cc3)CC2)C1 [Navitoclax] (partner 0.5 µM)
2. C=C1C(=O)O[C@@H](CCCCCCCC)[C@@H]1C(=O)O [C-75] + Nc1nc2[nH]cc(CCc3ccc(C(=O)N[C@@H](CCC(=O)O)C(=O)O)cc3)c2c(=O)[nH]1 [Pemetrexed] (partner 0.2 µM)
3. C=C1C(=O)O[C@@H](CCCCCCCC)[C@@H]1C(=O)O [C-75] + O=C(c1cc(Cc2n[nH]c(=O)c3ccccc23)ccc1F)N1CCN(C(=O)C2CC2)CC1 [Olaparib] (partner 8 µM)
4. C=C1C(=O)O[C@@H](CCCCCCCC)[C@@H]1C(=O)O [C-75] + CS(=O)(=O)CCNCc1ccc(-c2ccc3ncnc(Nc4ccc(OCc5cccc(F)c5)c(Cl)c4)c3c2)o1 [Lapatinib] (partner 2 µM)
5. C=C1C(=O)O[C@@H](CCCCCCCC)[C@@H]1C(=O)O [C-75] + C[C@]1(O)C[C@@H](c2nc(-c3ccc4ccc(-c5ccccc5)nc4c3)c3c(N)nccn32)C1 [Linsitinib] (partner 1 µM)
6. Oc1nc(-c2ccc(C(F)(F)F)cc2)nc2c1CSCC2 [XAV939] + COc1cc2c(Oc3ccc(NC(=O)C4(C(=O)Nc5ccc(F)cc5)CC4)cc3F)ccnc2cc1OCCCN1CCOCC1 [Foretinib] (partner 0.25 µM)

0.887
0.503
0.73
1.08
1.01
0.814
